Every entry's value here was drawn from paper PMC8277577.

assayedTarget: SARS-CoV-2 receptor binding domain (RBD) (SARS-CoV-2, GenBank MN985325.1 …, UniProt P0DTC2)
measurementNotes: BLI
testContext: both partners purified
measuredProperty: pKd
Please express pKd as -log10 of the molar concentration.

Field request: pKd | item: C517 (antibody, V domains shown, source: recombinant, purified) VH: EVQLVESGGGLVQPGGSLRLSCAASEFIVSRNYMSWVRQAPGKGLEWVSLIYSGGSTYYADSVKGRFTISRDNSKNTLYLQMNSLRAEDTAMYYCARDIAGRLDYWGQGTLVTVSS VL: DIQMTQSPSSLSASVGDRVTITCQASQDISKYLNWYQQKPGKAPKLLIYDASNLETGVPSRFSGSGSGTDFTFTISSLQPEDFATYYCQHYDSLSRLTFGGGTKVEIK
7.54

Field request: pKd | item: C951 (antibody, V domains shown, source: recombinant, purified) VH: QVQLQESGPRLVKPSGTLSLTCAVSGGSISTTNWWSWVRQPPGKGLEWIGEIHHSGNTNYNPSLKSRVTISVDRSKNQFSLKLSSVTAADTAVYFCARDGGRPGDPFDIWGQGTMVTVSS VL: QSALTQPASVSGSPGQSITISCTGTSSDVGGYNYVSWYQQHPGKAPNLMIYDVSDRPSGVSNRFSGSKSGNTASLTISGLQAEDEADYYCNSFTSNSTRVFGTGTKVTV
8.48

Field request: pKd | item: C930 (antibody, V domains shown, source: recombinant, purified) VH: EVQLVESGGGLFQPGGSLRLACAASGITVSSNYMSWVRQPPGKGLEWVSVIYAGGSTFYADSVKGRLTISRDNSKNTLYLQINSLRAEDTAVYYCARDLVVWGMDVWGQGTTVTVSS VL: DIQLTQSPSFLSASVGDRVTITCRASQGISSYLAWYQQKPGKAPKLLIYAASTLQSGVPSRFSGSGSGTEFTLTISSLQPEDFATYYCQQLNTYPYTFGQGTKLEIK
9.50

Field request: pKd | item: C108 (antibody, V domains shown, source: recombinant, purified) VH: QVQLQESGPGLVKPSGTLSLTCAVSGGSISSTNWWSWVRQPPGKGLEWIGEIYHTGSTNYNPSLKSRVTISVDKSKNQFSLKLSSVTAADTAVYYCVRDGGRPGDAFDIWGQGTMVTVSS VL: QSALTQPASVSGSPGQSITISCTGTSSDVGGYNYVSWYQQHPGKAPKLMIYDVSNRPSGVSNRFSGSKSGNTASLTISGLQAEDEADYYCNSYTSSSTRVFGTGTKVTVL
7.67

Field request: pKd | item: C1008 (antibody, V domains shown, source: recombinant, purified) VH: EVQLVESGGGLIQPGGSLRLSCAASGFTVSSNYMSWVRQAPGKGLEWVSVIYSGGSTYYADSVKGRFTISRDNSKNTLYLQMNSLRAEDTAVYYCARVVGYDFWSGYDGGYFDYWGQGTLVTVSS VL: QSALTQPASVSGSPGQSITISCTGTSSDVGSYNLVSWYQQHPGKAPKLMIYEVSKRPSGVSNRFSGSKSGNTASLTISGLQAEDEADYYCCSYAGSSTWVFGGGTKLTVL
6.68

Field request: pKd | item: C881 (antibody, V domains shown, source: recombinant, purified) VH: EVQLVESGGGLIQPGGSLRLSCAVSGVAVSTNYMSWVRQAPGQGLEWVSTIYSGDTTYYSDSVKGRFTISRDNSKNTFYLQMNSLRVPDTAVYYCARLGGVFNGFNGSFDYWGQGTLVTVS VL: QSALTQPASVSGSPGQSITISCIGTSSDFENYNLVSWYQQHPGKAPKVMIYEDTKRPSGVSNRFSGSKSANTASLTISGLQAEDEAEYYCCSYAGASTWVFGGGTRVTVV
8.71

Field request: pKd | item: C889 (antibody, V domains shown, source: recombinant, purified) VH: EVQLVESGGGLVQPGGSLRLSCAVSGFTVSSNYMTWVRQAPGKGLEWVSLIYSGTSAFYADSVKGRFTISRDNSKNTLYLQMSSLRVNDTAIYYCARDLRKDDGYSYGAFDYWGQGTLVTVSS VL: QSALTQPASVSGSPGQSITISCSGTSSDVGAHNYVSWYQQYPGKAPKLMIFDVTDRPSGVSNRFSGSKSGNTASLTISGLQAEDEADYYCTSYTTNRSWVFGGGTKVTVL
8.61

Field request: pKd | item: C153 (antibody, V domains shown, source: recombinant, purified) VH: EVQLVESGGGLIQPGGSLRLSCAASGFTVSSNYMSWVRQAPGKGLEWVSVIYSGYSTYYVDSVKGRFTISRDNSKNTLYLQMNSLRAEDTAVYYCARVGGAHSGYDGSFDYWGQGTLVTVSS VL: QSALTQPASVSGSPGQSITISCTGTSSDVGSYNLVSWYQQHPGKAPKLMIYEGSKRPSGVSNRFSGSKSGNTASLTISGLQAEDEADYYCCSYAGSSTWVFGGGTKLTVL
5.86

Field request: pKd | item: C1011 (antibody, V domains shown, source: recombinant, purified) VH: QVQLVESGGGVVQPGRSLRLSCAVSGFTFSHYAMHWVRQAPGKGLEWVAVISYDGADKYYADSVRGRFTIARDNSKNTLFLQMSSLRPEDTAVYYCAKKGQPYCGGDCHFYYLDYWGQGTLVTVSS VL: DIQMTQSPSSLSASVGDRVTITCQASQDISNHLNWYQQKPGKAPKLLIYDASNLETGVPSRFSGSGSGTDFTFTISSLQAEDIATYYCQQYDNLPPITFGQGTRLEIK
10.92

Field request: pKd | item: C954 (antibody, V domains shown, source: recombinant, purified) VH: QVQLVQSGAEVKKPGSSVKVSCKASGDTFTNYAFSWMRQAPGQGLEWMGRIIPILGIVKYSQKFQDRVRISADKSTSTAYMDLSSLRSEDTAMYYCARDSEFSTSWFSRGYHGMDVWGQGTTVTVSS VL: DIVMTQSPLSLPVTPGEPASISCRSSQSLLHGDGYNYLDWYLQKPGQSPHLLIYLGSNRTSGVSDRFSGSGSGTDFTLKISRVEAEDVGVYYCMQALQTPPTFGGGTKVEIK
8.83
